Molecular target: UniProtKB P35346
Assay: Hit Hunter cAMP XS+ assay, SST5 activation via Gi (reduction of forskolin-stimulated cAMP)
Format: cell-based
Details: reduction of forskolin-stimulated cAMP; 4-parameter logistic fit; read-out: SST5 pEC50 (converted)
Protocol: A Hit Hunter® cAMP XS+ assay was used to monitor activation of the SST2 and SST5 via the Gi G protein. Cells were pre-stimulated with forskolin to elicit a cAMP response and the potency and efficacy of somatostatin agonists to reduce cAMP was measured. […] Signal was detected through incubation with 20 μL cAMP XS+ED/CL lysis cocktail ([…]; RT) followed by incubation with […] cAMP XS+EA reagent (180 min; RT). […]
*1 amine or outer side, *2 acyl side, *3 side chain or, on linkers, in order; H or OH if unused. Where a SMILES comes first, the peptide text is derived from it. Side-chain parts run from the residue outwards. [ ]: non-standard residue; d: D form. The star is where a group is joined. Ala(piperidin-4-yl) = O=C([C@H](CC1CCN([*:3])CC1)N[*:1])[*:2]; dTrp(4-OMe) = COc1cccc2[nH]cc(C[C@@H](N)C(=O)O)c12; dTrp(5-OMe) = COc1ccc2[nH]cc(C[C@@H](N)C(=O)O)c2c1; dTrp(4-Me) = Cc1cccc2[nH]cc(C[C@@H](N)C(=O)O)c12; Ala(piperazin-1-yl) = N[C@@H](CN1CCNCC1)C(=O)O; Morpholine(3S-CO) = O=C(O)[C@@H]1COCCN1; Ethylenediamine = C(CN[*:2])N[*:1]; d(hPhe) = N[C@H](CCc1ccccc1)C(=O)O; Hyp = O=C(O)[C@@H]1C[C@@H](O)CN1; NMeF = CN[C@@H](Cc1ccccc1)C(=O)O; hPhe = N[C@@H](CCc1ccccc1)C(=O)O; 3Pal = N[C@@H](Cc1cccnc1)C(=O)O; Tic = O=C(O)[C@@H]1Cc2ccccc2CN1; Benzyl(4-Cl) = Clc1ccc(C*)cc1; Phg = N[C@H](C(=O)O)c1ccccc1; CO = O=C([*:1])[*:2]; Bn = c1ccc(C*)cc1
Reported EC50 values for the following molecules.
Observation type: EC50

Molecule: NCCNC(=O)O[C@@H]1C[C@H]2C(=O)N[C@@H](CCc3ccccc3)C(=O)N[C@@H](Cc3c[nH]c4ccccc34)C(=O)N[C@@H](CN3CCNCC3)C(=O)N[C@@H](Cc3ccc(OCc4ccccc4)cc3)C(=O)N[C@@H](Cc3cccnc3)C(=O)N2C1 [Example 34] (cyclo([3Pal][Hyp]([CO-Ethylenediamine])[hPhe]W[Ala(piperazin-1-yl)]Y(Bn)))
Result: 1 nM

Molecule: CN1C(=O)[C@H](Cc2ccc(OCc3ccccc3)cc2)NC(=O)[C@H](CN2CCNCC2)NC(=O)[C@@H](Cc2c[nH]c3ccccc23)NC(=O)[C@H](CCc2ccccc2)NC(=O)[C@@H]2C[C@@H](OC(=O)NCCN)CN2C(=O)[C@@H]1Cc1ccccc1 [Example 57] (cyclo([Hyp]([CO-Ethylenediamine])[hPhe][dW][Ala(piperazin-1-yl)]Y(Bn)[NMeF]))
Result: 0.501 nM

Molecule: COc1ccc2[nH]cc(C[C@H]3NC(=O)[C@H](c4ccccc4)NC(=O)[C@@H]4C[C@@H](OC(=O)NCCN)CN4C(=O)[C@H](Cc4ccccc4)NC(=O)[C@H](Cc4ccc(OCc5ccccc5)cc4)NC(=O)[C@H](CC4CCNCC4)NC3=O)c2c1 [Example 5] (cyclo(F[Hyp]([CO-Ethylenediamine])[Phg][dTrp(5-OMe)][Ala(piperidin-4-yl)]Y(Bn)))
Result: 10 nM

Molecule: NCCNC(=O)O[C@@H]1C[C@H]2C(=O)N[C@@H](CCc3ccccc3)C(=O)N[C@H](Cc3c[nH]c4ccccc34)C(=O)N[C@@H](CC3CCNCC3)C(=O)N[C@@H](Cc3ccc(OCc4ccc(Cl)cc4)cc3)C(=O)N[C@@H](Cc3cccnc3)C(=O)N2C1 [Example 40] (cyclo([3Pal][Hyp]([CO-Ethylenediamine])[hPhe][dW][Ala(piperidin-4-yl)]Y(Benzyl(4-Cl))))
Result: 2.51 nM

Molecule: COc1cccc2[nH]cc(C[C@H]3NC(=O)[C@@H](CCc4ccccc4)NC(=O)[C@@H]4COCCN4C(=O)[C@@H]4Cc5ccccc5CN4C(=O)[C@H](Cc4ccc(OCc5ccccc5)cc4)NC(=O)[C@H](CN4CCNCC4)NC3=O)c12 [Example 63] (cyclo([Tic][Morpholine(3S-CO)][d(hPhe)][dTrp(4-OMe)][Ala(piperazin-1-yl)]Y(Bn)))
Result: 2.51 nM

Molecule: Cc1cccc2[nH]cc(C[C@H]3NC(=O)[C@H](CCc4ccccc4)NC(=O)[C@@H]4C[C@@H](OC(=O)NCCN)CN4C(=O)[C@H](Cc4cccnc4)NC(=O)[C@H](Cc4ccc(OCc5ccccc5)cc4)NC(=O)[C@H](CC4CCNCC4)NC3=O)c12 [Example 60] (cyclo([3Pal][Hyp]([CO-Ethylenediamine])[hPhe][dTrp(4-Me)][Ala(piperidin-4-yl)]Y(Bn)))
Result: 1 nM

---

Target: SST5 (Homo sapiens, UniProt P35346)
Sequence (P35346 whole entry): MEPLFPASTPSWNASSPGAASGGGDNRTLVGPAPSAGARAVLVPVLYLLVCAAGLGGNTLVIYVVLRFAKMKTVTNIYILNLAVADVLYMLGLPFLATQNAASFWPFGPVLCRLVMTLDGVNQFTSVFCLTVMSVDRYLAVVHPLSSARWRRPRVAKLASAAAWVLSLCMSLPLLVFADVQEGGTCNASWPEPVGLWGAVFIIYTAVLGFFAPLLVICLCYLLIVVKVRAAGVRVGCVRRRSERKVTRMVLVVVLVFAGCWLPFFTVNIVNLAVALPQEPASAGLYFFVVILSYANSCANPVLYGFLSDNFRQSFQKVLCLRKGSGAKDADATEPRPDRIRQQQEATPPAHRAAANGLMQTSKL
Experiment: Hit Hunter cAMP XS+ assay, SST5 activation via Gi (reduction of forskolin-stimulated cAMP)
Format: cell-based
Settings: selectivity for SST5 over SST2
*1 amine or outer side, *2 acyl side, *3 side chain or, on linkers, in order; H or OH if unused. Where a SMILES comes first, the peptide text is derived from it. Side-chain parts run from the residue outwards. [ ]: non-standard residue; d: D form. The star is where a group is joined. Ala(piperidin-4-yl) = O=C([C@H](CC1CCN([*:3])CC1)N[*:1])[*:2]; Ala(piperazin-1-yl) = N[C@@H](CN1CCNCC1)C(=O)O; X5 = CN([C@@H](CC1CCNCC1)C(=O)[*:2])[*:1]; Phe(4-Cl) = N[C@@H](Cc1ccc(Cl)cc1)C(=O)O; Morpholine(3S-CO) = O=C(O)[C@@H]1COCCN1; Ethylenediamine = C(CN[*:2])N[*:1]; d(hPhe) = N[C@H](CCc1ccccc1)C(=O)O; Hyp = O=C(O)[C@@H]1C[C@@H](O)CN1; hPhe = N[C@@H](CCc1ccccc1)C(=O)O; 3Pal = N[C@@H](Cc1cccnc1)C(=O)O; Cyclohexylmethyl = C1CCC(C*)CC1; Tic = O=C(O)[C@@H]1Cc2ccccc2CN1; Benzyl(4-Cl) = Clc1ccc(C*)cc1; Phg = N[C@H](C(=O)O)c1ccccc1; CO = O=C([*:1])[*:2]; Bn = c1ccc(C*)cc1
Classify as follows. Reported SST5/2 Selectivity greater than or equal to 500: met. Reported SST5/2 Selectivity below: not met.

Molecule: NCCNC(=O)O[C@@H]1C[C@H]2C(=O)N[C@H](CCc3ccccc3)C(=O)N[C@H](Cc3c[nH]c4ccccc34)C(=O)N[C@@H](CN3CCNCC3)C(=O)N[C@@H](Cc3ccc(OCc4ccc(Cl)cc4)cc3)C(=O)N[C@@H](Cc3cccnc3)C(=O)N2C1 [Example 58] (cyclo([3Pal][Hyp]([CO-Ethylenediamine])[d(hPhe)][dW][Ala(piperazin-1-yl)]Y(Benzyl(4-Cl))))
Classification: met
--
Molecule: NCCNC(=O)O[C@@H]1C[C@H]2C(=O)N[C@H](CCc3ccccc3)C(=O)N[C@H](Cc3c[nH]c4ccccc34)C(=O)N[C@@H](CC3CCNCC3)C(=O)N[C@@H](Cc3ccc(OCC4CCCCC4)cc3)C(=O)N[C@@H](Cc3cccnc3)C(=O)N2C1 [Example 53] (cyclo([3Pal][Hyp]([CO-Ethylenediamine])[d(hPhe)][dW][Ala(piperidin-4-yl)]Y(Cyclohexylmethyl)))
Classification: not met
--
Molecule: COc1ccc(C[C@@H]2NC(=O)[C@H](Cc3ccc(OCc4ccccc4)cc3)NC(=O)[C@H](CC3CCNCC3)NC(=O)[C@@H](Cc3c[nH]c4ccccc34)NC(=O)[C@H](CCc3ccccc3)NC(=O)[C@@H]3C[C@@H](OC(=O)NCCN)CN3C2=O)cc1 [Example 43] (cyclo([Hyp]([CO-Ethylenediamine])[hPhe][dW][Ala(piperidin-4-yl)]Y(Bn)Y(Me)))
Classification: not met
--
Molecule: CN1C(=O)[C@@H](Cc2c[nH]c3ccccc23)NC(=O)[C@@H](CCc2ccccc2)NC(=O)[C@@H]2COCCN2C(=O)[C@@H]2Cc3ccccc3CN2C(=O)[C@H](Cc2ccc(OCc3ccccc3)cc2)NC(=O)[C@@H]1CC1CCNCC1 [Example 32] (cyclo([Tic][Morpholine(3S-CO)][d(hPhe)][dW][X5]Y(Bn)))
Classification: not met
--
Molecule: NCCNC(=O)O[C@@H]1C[C@H]2C(=O)N[C@H](CCc3ccccc3)C(=O)N[C@H](Cc3c[nH]c4ccccc34)C(=O)N[C@@H](CN3CCNCC3)C(=O)N[C@@H](Cc3ccc(OCc4ccccc4)cc3)C(=O)N[C@@H](Cc3cccnc3)C(=O)N2C1 [Example 16] (cyclo([3Pal][Hyp]([CO-Ethylenediamine])[d(hPhe)][dW][Ala(piperazin-1-yl)]Y(Bn)))
Classification: met
--
Molecule: NCCNC(=O)O[C@@H]1C[C@H]2C(=O)N[C@@H](CCc3ccccc3)C(=O)N[C@H](Cc3c[nH]c4ccccc34)C(=O)N[C@@H](CN3CCNCC3)C(=O)N[C@@H](Cc3ccc(OCc4ccccc4)cc3)C(=O)N3CCC[C@H]3C(=O)N2C1 [Example 37] (cyclo([Hyp]([CO-Ethylenediamine])[hPhe][dW][Ala(piperazin-1-yl)]Y(Bn)P))
Classification: met
--
Molecule: NCCNC(=O)O[C@@H]1C[C@H]2C(=O)N[C@@H](CCc3ccccc3)C(=O)N[C@H](Cc3c[nH]c4ccccc34)C(=O)N[C@@H](CN3CCNCC3)C(=O)N[C@@H](Cc3ccc(OCc4ccc(Cl)cc4)cc3)C(=O)N[C@@H](Cc3cccnc3)C(=O)N2C1 [Example 59] (cyclo([3Pal][Hyp]([CO-Ethylenediamine])[hPhe][dW][Ala(piperazin-1-yl)]Y(Benzyl(4-Cl))))
Classification: met
--
Molecule: NCCNC(=O)O[C@@H]1C[C@H]2C(=O)N[C@@H](CCc3ccccc3)C(=O)N[C@H](Cc3c[nH]c4ccccc34)C(=O)N[C@@H](CN3CCNCC3)C(=O)N[C@@H](Cc3ccc(OCC4CCCCC4)cc3)C(=O)N[C@@H](Cc3cccnc3)C(=O)N2C1 [Example 52] (cyclo([3Pal][Hyp]([CO-Ethylenediamine])[hPhe][dW][Ala(piperazin-1-yl)]Y(Cyclohexylmethyl)))
Classification: met
--
Molecule: NCCNC(=O)O[C@@H]1C[C@H]2C(=O)N[C@@H](CCc3ccccc3)C(=O)N[C@H](Cc3c[nH]c4ccccc34)C(=O)N[C@@H](CC3CCNCC3)C(=O)N[C@@H](Cc3ccc(OCC4CCCCC4)cc3)C(=O)N3Cc4ccccc4C[C@H]3C(=O)N2C1 [Example 44] (cyclo([Hyp]([CO-Ethylenediamine])[hPhe][dW][Ala(piperidin-4-yl)]Y(Cyclohexylmethyl)[Tic]))
Classification: met
--
Molecule: NCCNC(=O)O[C@@H]1C[C@H]2C(=O)N[C@H](CCc3ccccc3)C(=O)N[C@H](Cc3c[nH]c4ccccc34)C(=O)N[C@@H](CC3CCNCC3)C(=O)N[C@@H](Cc3ccc(OCc4ccccc4)cc3)C(=O)N[C@@H](Cc3cccnc3)C(=O)N2C1 [Example 15] (cyclo([3Pal][Hyp]([CO-Ethylenediamine])[d(hPhe)][dW][Ala(piperidin-4-yl)]Y(Bn)))
Classification: met
--
Molecule: NCCNC(=O)O[C@@H]1C[C@H]2C(=O)N[C@@H](c3ccccc3)C(=O)N[C@H](Cc3c[nH]c4ccccc34)C(=O)N[C@@H](CC3CCNCC3)C(=O)N[C@@H](Cc3ccc(OCc4ccccc4)cc3)C(=O)N[C@@H](Cc3ccc(Cl)cc3)C(=O)N2C1 [Example 8] (cyclo([Hyp]([CO-Ethylenediamine])[Phg][dW][Ala(piperidin-4-yl)]Y(Bn)[Phe(4-Cl)]))
Classification: not met
